// compounds with reported IC50 on Tyrosine-protein kinase JAK2 (Homo sapiens, UniProt O60674), multi-publication
EXPERIMENTAL ENDPOINT: IC50 (nM)

MOLECULAR STRING	CENSOR SYMBOL	RESULT VALUE
NC(=O)c1nc(-c2c(Cl)cccc2Cl)oc1Nc1ccc(C(=O)N2CCS(=O)(=O)CC2)cc1	=	50
CC(=O)Nc1cc(Oc2ccc3nc(Nc4cc(C(C)(C)C)nn4-c4ccc(C)cc4)n4c3c2CCC4)ccn1	>	10000
N#Cc1cc(-c2ncnc(Nc3cnn(C(F)F)c3)n2)ccc1O[C@H]1CCN(C(=O)CO)C[C@H]1F	=	621
